TESTED_ON: Human PI3K gamma (Homo sapiens, UniProt P48736)
Construct: His (N); host or cells: SF9 insect cells (baculovirus)
Sequence (P48736 whole entry): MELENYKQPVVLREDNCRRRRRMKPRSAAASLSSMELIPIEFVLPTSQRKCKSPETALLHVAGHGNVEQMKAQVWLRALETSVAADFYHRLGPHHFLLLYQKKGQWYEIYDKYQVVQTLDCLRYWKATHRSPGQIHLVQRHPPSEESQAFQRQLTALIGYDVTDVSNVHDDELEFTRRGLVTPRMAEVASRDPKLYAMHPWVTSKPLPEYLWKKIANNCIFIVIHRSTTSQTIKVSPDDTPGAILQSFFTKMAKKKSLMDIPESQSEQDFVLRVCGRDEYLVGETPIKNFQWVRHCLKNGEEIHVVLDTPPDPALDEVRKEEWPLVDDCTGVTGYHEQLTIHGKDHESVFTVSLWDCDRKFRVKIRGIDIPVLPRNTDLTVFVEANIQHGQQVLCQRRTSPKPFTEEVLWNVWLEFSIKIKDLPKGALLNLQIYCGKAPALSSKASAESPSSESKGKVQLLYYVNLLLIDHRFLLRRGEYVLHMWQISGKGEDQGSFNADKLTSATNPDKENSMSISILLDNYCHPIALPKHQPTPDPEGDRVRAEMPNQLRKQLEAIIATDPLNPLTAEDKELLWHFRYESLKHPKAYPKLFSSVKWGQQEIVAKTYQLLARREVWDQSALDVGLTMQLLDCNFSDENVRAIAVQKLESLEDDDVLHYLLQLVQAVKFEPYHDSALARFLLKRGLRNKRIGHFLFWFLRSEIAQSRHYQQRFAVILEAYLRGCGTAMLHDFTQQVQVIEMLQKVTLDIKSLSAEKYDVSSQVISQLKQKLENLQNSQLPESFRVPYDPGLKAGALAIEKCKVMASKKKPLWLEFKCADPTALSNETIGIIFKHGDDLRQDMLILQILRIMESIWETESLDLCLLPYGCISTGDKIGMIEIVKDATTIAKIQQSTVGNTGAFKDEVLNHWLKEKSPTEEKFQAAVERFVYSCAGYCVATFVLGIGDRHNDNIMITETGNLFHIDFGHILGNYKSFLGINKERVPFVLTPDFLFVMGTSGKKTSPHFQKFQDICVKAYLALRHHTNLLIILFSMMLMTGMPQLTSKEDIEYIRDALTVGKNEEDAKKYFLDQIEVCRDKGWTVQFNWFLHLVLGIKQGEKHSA
ASSAY_NAME: Human PI3K gamma enzyme assay (HTRF)
Assay type: biochemical
STUDY_CONDITIONS: concentration not given; b1389 states 1.0 μM for PI3K δ and γ; read-out: p110 gamma Percent Inhibition
OBSERVATION_TYPE: inhibition at 1 µM (%)
Response body: numeric value in %, unit text excluded.

In the examples that follow, each entry is paired with its recorded inhibition at 1 µM.
>>> df
                                   molecule  measured_result
0  Cc1nc2cc(Cc3nc(N4CCOCC4)sc3C(=O)O)ccc2s1               10
1   O=C(O)c1sc(-c2ccncc2)cc1Cc1ccc2ccccc2c1               68
2  O=C(O)c1sc(N2CCOCC2)nc1Cc1cc2cc(Br)ccc2s1               69

Short answer for CC(=O)Nc1cc(-c2cc(C(c3ccc(Cl)cc3)N3CC(O)C3)c(-c3nnc[nH]3)s2)ccn1 (centres unmarked) : inhibition at 1 µM was 37

Short answer for OC(c1ccc(-c2cncnc2)cc1)c1cc(-c2ccncc2)sc1-c1nnc[nH]1 (centres unmarked) : inhibition at 1 µM was 10

Short answer for COc1cnc(Cl)cc1-c1cc(C(O)c2ccc(Cl)cc2)c(-c2nnc[nH]2)s1 (centres unmarked) : inhibition at 1 µM was 4

Short answer for O=C(O)c1sc(N2CCOCC2)c(C#Cc2ccccc2)c1Cc1ccc(Cl)c(Cl)c1 : inhibition at 1 µM was 14

Short answer for CC(=O)Nc1cc(-c2cc(C(NCCN(C)C)c3ccc(Cl)cc3)c(-c3nnc[nH]3)s2)ccn1 (centres unmarked) : inhibition at 1 µM was 16
